- experimental-system: ATP-dependent Clp protease ATP-binding subunit ClpC1 (Mycobacterium tuberculosis, UniProt P9WPC9)
- Sequence (P9WPC9 whole entry, the tested form may be a part): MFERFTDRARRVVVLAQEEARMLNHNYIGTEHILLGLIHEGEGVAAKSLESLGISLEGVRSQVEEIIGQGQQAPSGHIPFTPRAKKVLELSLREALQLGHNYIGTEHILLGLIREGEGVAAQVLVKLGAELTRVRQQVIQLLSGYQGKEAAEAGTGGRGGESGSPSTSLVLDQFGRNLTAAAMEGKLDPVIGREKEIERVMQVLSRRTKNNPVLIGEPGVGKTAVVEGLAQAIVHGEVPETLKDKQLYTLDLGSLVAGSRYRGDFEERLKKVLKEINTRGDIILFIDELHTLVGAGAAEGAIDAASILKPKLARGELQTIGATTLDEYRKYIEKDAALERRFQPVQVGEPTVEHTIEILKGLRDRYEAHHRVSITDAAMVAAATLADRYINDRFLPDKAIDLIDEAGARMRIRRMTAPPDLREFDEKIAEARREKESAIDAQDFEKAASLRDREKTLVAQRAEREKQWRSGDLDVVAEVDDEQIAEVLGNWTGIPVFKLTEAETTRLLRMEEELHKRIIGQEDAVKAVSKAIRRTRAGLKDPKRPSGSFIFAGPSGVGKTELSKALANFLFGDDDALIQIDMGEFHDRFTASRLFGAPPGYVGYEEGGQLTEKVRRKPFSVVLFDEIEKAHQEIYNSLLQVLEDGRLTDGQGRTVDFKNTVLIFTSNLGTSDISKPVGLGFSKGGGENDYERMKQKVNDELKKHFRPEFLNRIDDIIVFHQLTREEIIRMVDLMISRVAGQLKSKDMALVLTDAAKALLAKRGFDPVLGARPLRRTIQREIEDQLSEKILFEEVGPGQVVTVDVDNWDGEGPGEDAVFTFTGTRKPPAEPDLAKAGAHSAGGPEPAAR
- measurement-protocol: Binding affinity to recombinant Mycobacterium tuberculosis H37Rv N-terminal His6-tagged ClpC1 (1 to 145 residues) expressed in Escherichia coli BL21 cells by surface plasmon resonance analysis
Starred links: 1 amine or outer side, 2 acyl side, 3 side chain; linkers in the order of their positions; H or OH if unused. Non-standard residues stand in square brackets, D forms with d. Residues, ends and D or L forms follow the SMILES beside them. Trp(1-CMe2(2S-oxiranyl)) = CC(C)([C@H]1CO1)n1cc(C[C@H](N)C(=O)O)c2ccccc21; Tyr(3-NO2) = N[C@@H](Cc1ccc(O)c([N+](=O)[O-])c1)C(=O)O; NMeLeu(5-OH,4R) = CN[C@@H](C[C@@H](C)CO)C(=O)O; X1 = COC(OC)C(C)C[C@@H](C(=O)[*:2])N(C)[*:1]; Gly(E-crotyl) = C/C=C/C[C@H](N)C(=O)O; NMeL = CN[C@@H](CC(C)C)C(=O)O
measurement-label: pKd
Please note pKd is a logarithmic value: minus log10 of concentration in mol/L. Answer with that number alone.

Prompt: What pKd value was documented for this compound, C/C=C/C[C@@H]1NC(=O)[C@H](CC(C)C)NC(=O)[C@H](C[C@@H](C)CO)N(C)C(=O)[C@H](C)NC(=O)[C@H](Cc2ccc(O)c([N+](=O)[O-])c2)NC(=O)[C@H](CC(C)C)N(C)C(=O)[C@H](Cc2cn(C(C)(C)[C@H]3CO3)c3ccccc23)NC1=O (cyclo(A[NMeLeu(5-OH,4R)]L[Gly(E-crotyl)][Trp(1-CMe2(2S-oxiranyl))][NMeL][Tyr(3-NO2)])) ?
Response: 5.80

Prompt: What pKd value was documented for this compound, C/C=C/C[C@@H]1NC(=O)[C@H](CC(C)C)N2C(=O)[C@H](C[C@](C)(O)[C@H]2O)N(C)C(=O)[C@H](C)NC(=O)[C@H](Cc2ccc(O)c([N+](=O)[O-])c2)NC(=O)[C@H](CC(C)C)N(C)C(=O)[C@H](Cc2cn(C(C)(C)[C@H]3CO3)c3ccccc23)NC1=O ?
Response: 7.22

Prompt: What pKd value was documented for this compound, C/C=C/C[C@@H]1NC(=O)[C@H](CC(C)C)NC(=O)[C@H](CC(C)C(OC)OC)N(C)C(=O)[C@H](C)NC(=O)[C@H](Cc2ccc(O)c([N+](=O)[O-])c2)NC(=O)[C@H](CC(C)C)N(C)C(=O)[C@H](Cc2cn(C(C)(C)[C@H]3CO3)c3ccccc23)NC1=O (stereo partly drawn) (cyclo(A[X1]L[Gly(E-crotyl)][Trp(1-CMe2(2S-oxiranyl))][NMeL][Tyr(3-NO2)])) ?
Response: 6.51

###

Kindly supply the reported Kd values for the records listed here.
- experimental-system: ATP-dependent Clp protease ATP-binding subunit ClpC1 (Mycobacterium tuberculosis, UniProt P9WPC9)
- measurement-protocol: Binding affinity to recombinant full length Mycobacterium tuberculosis H37Rv ClpC1 (1 to 842 residues) expressed in Escherichia coli BL21 cells by surface plasmon resonance analysis
Non-standard residues stand in square brackets, D forms with d. Residues, ends and D or L forms follow the SMILES beside them. Trp(1-CMe2(2S-oxiranyl)) = CC(C)([C@H]1CO1)n1cc(C[C@H](N)C(=O)O)c2ccccc21; Trp(1-(1,1-Me2-allyl)) = C=CC(C)(C)n1cc(C[C@H](N)C(=O)O)c2ccccc21; Tyr(3-NO2) = N[C@@H](Cc1ccc(O)c([N+](=O)[O-])c1)C(=O)O; NMeLeu(5-OH,4R) = CN[C@@H](C[C@@H](C)CO)C(=O)O; Gly(E-crotyl) = C/C=C/C[C@H](N)C(=O)O; NMeL = CN[C@@H](CC(C)C)C(=O)O
The reply should contain only the number, in nM.

Prompt: What Kd value was documented for this molecule, C=CC(C)(C)n1cc(C[C@@H]2NC(=O)[C@H](C/C=C/C)NC(=O)[C@H](CC(C)C)NC(=O)[C@H](CC(C)C)N(C)C(=O)[C@H](C)NC(=O)[C@H](Cc3ccc(O)c([N+](=O)[O-])c3)NC(=O)[C@H](CC(C)C)N(C)C2=O)c2ccccc21 (cyclo(A[NMeL]L[Gly(E-crotyl)][Trp(1-(1,1-Me2-allyl))][NMeL][Tyr(3-NO2)])) ?
Response: 3200

Prompt: What Kd value was documented for this molecule, C/C=C/C[C@@H]1NC(=O)[C@H](CC(C)C)NC(=O)[C@H](C[C@@H](C)CO)N(C)C(=O)[C@H](C)NC(=O)[C@H](Cc2ccc(O)c([N+](=O)[O-])c2)NC(=O)[C@H](CC(C)C)N(C)C(=O)[C@H](Cc2cn(C(C)(C)[C@H]3CO3)c3ccccc23)NC1=O (cyclo(A[NMeLeu(5-OH,4R)]L[Gly(E-crotyl)][Trp(1-CMe2(2S-oxiranyl))][NMeL][Tyr(3-NO2)])) ?
Response: 1300

Prompt: What Kd value was documented for this molecule, C/C=C/C[C@@H]1NC(=O)[C@H](CC(C)C)N2C(=O)[C@H](CC(C)[C@H]2O)N(C)C(=O)[C@H](C)NC(=O)[C@H](Cc2ccc(O)c([N+](=O)[O-])c2)NC(=O)[C@H](CC(C)C)N(C)C(=O)[C@H](Cc2cn(C(C)(C)[C@H]3CO3)c3ccccc23)NC1=O (some centres undefined) ?
Response: 60

Prompt: What Kd value was documented for this molecule, C/C=C/C[C@@H]1NC(=O)[C@H](CC(C)C)N2C(=O)[C@H](C[C@@H](C)[C@H]2O)N(C)C(=O)[C@H](C)NC(=O)[C@H](Cc2ccc(O)c([N+](=O)[O-])c2)NC(=O)[C@H](CC(C)C)N(C)C(=O)[C@H](Cc2cn(C(C)(C)[C@H](O)CO)c3ccccc23)NC1=O ?
Response: 280

###

- experimental-system: ATP-dependent Clp protease ATP-binding subunit ClpC1 (Mycobacterium tuberculosis, UniProt P9WPC9)
- measurement-protocol: Binding affinity to recombinant full length Mycobacterium tuberculosis H37Rv ClpC1 (1 to 842 residues) expressed in Escherichia coli BL21 cells by surface plasmon resonance analysis
Starred links: 1 amine or outer side, 2 acyl side, 3 side chain; linkers in the order of their positions; H or OH if unused. Non-standard residues stand in square brackets, D forms with d. Residues, ends and D or L forms follow the SMILES beside them. Trp(1-CMe2(2S-oxiranyl)) = CC(C)([C@H]1CO1)n1cc(C[C@H](N)C(=O)O)c2ccccc21; Tyr(3-NO2) = N[C@@H](Cc1ccc(O)c([N+](=O)[O-])c1)C(=O)O; X1 = COC(OC)C(C)C[C@@H](C(=O)[*:2])N(C)[*:1]; X2 = C[C@H](CO)C[C@@H](C(=O)[*:2])N(C)[*:1]; Gly(E-crotyl) = C/C=C/C[C@H](N)C(=O)O; NMeL = CN[C@@H](CC(C)C)C(=O)O
Kindly supply the reported Kd values for the records listed here.
The reply should contain only the number, in µM.

Prompt: What Kd value was documented for this compound, C/C=C/C[C@@H]1NC(=O)[C@H](CC(C)C)NC(=O)[C@H](C[C@H](C)CO)N(C)C(=O)[C@H](C)NC(=O)[C@H](Cc2ccc(O)c([N+](=O)[O-])c2)NC(=O)[C@H](CC(C)C)N(C)C(=O)[C@H](Cc2cn(C(C)(C)[C@H]3CO3)c3ccccc23)NC1=O (cyclo(A[X2]L[Gly(E-crotyl)][Trp(1-CMe2(2S-oxiranyl))][NMeL][Tyr(3-NO2)])) ?
Response: 0.5

Prompt: What Kd value was documented for this compound, C/C=C/C[C@@H]1NC(=O)[C@H](CC(C)C)NC(=O)[C@H](CC(C)C(OC)OC)N(C)C(=O)[C@H](C)NC(=O)[C@H](Cc2ccc(O)c([N+](=O)[O-])c2)NC(=O)[C@H](CC(C)C)N(C)C(=O)[C@H](Cc2cn(C(C)(C)[C@H]3CO3)c3ccccc23)NC1=O (stereo partly drawn) (cyclo(A[X1]L[Gly(E-crotyl)][Trp(1-CMe2(2S-oxiranyl))][NMeL][Tyr(3-NO2)])) ?
Response: 0.45

###

- Test system: Mycobacterium tuberculosis
- measurement-protocol: Antimycobacterial activity against Mycobacterium tuberculosis H37Rv assessed as reduction in microbial growth after 7 days by alamar blue assay
- Assay type: functional
- test-settings: 168 h
Non-standard residues stand in square brackets, D forms with d. Residues, ends and D or L forms follow the SMILES beside them. Trp(1-CMe2(2S-oxiranyl)) = CC(C)([C@H]1CO1)n1cc(C[C@H](N)C(=O)O)c2ccccc21; Tyr(3-NO2) = N[C@@H](Cc1ccc(O)c([N+](=O)[O-])c1)C(=O)O; Gly(E-crotyl) = C/C=C/C[C@H](N)C(=O)O; NMeL = CN[C@@H](CC(C)C)C(=O)O
measurement-label: MIC (µM)
The reply should contain only the number, in µM.

Prompt: Record CO[C@H]1/C=C/O[C@@]2(C)Oc3c(C)c(O)c4c(O)c(c(/C=N/N5CCN(C)CC5)c(O)c4c3C2=O)NC(=O)/C(C)=C\C=C\[C@H](C)[C@H](O)[C@@H](C)[C@@H](O)[C@@H](C)[C@H](OC(C)=O)[C@@H]1C : what is its MIC with Mycobacterium tuberculosis?
Response: 0.03

Prompt: Record C/C=C/C[C@@H]1NC(=O)[C@H](CC(C)C)NC(=O)[C@H](CC(C)C)N(C)C(=O)[C@H](C)NC(=O)[C@H](Cc2ccc(O)c([N+](=O)[O-])c2)NC(=O)[C@H](CC(C)C)NC(=O)[C@H](Cc2cn(C(C)(C)[C@H]3CO3)c3ccccc23)NC1=O (cyclo(A[NMeL]L[Gly(E-crotyl)][Trp(1-CMe2(2S-oxiranyl))]L[Tyr(3-NO2)])) : what is its MIC with Mycobacterium tuberculosis?
Response: 0.57

Provenance of the data: ChEMBL document CHEMBL4613246
